Origin of measurements: ChEMBL document CHEMBL1133074

Form field: Crel (one value per entry).
# assay_remarks: Relative concentration required to cause 50% degradation of the [32P]-pC11U2C7

// lookup Crel for Cc1nc(N)c2ncn([C@@H]3O[C@H](COP(=O)(O)O[C@@H]4[C@H](O)[C@@H](COP(=O)(O)O[C@@H]5[C@H](O)[C@@H](COP(=O)(O)O)O[C@H]5n5cnc6c(N)nc(C)nc65)O[C@H]4n4cnc5c(N)nc(C)nc54)[C@@H](O)[C@H]3O)c2n1 120

Now consider Cc1nc(N)c2ncn([C@@H]3O[C@H](COP(=O)(O)O)[C@@H](O)[C@H]3OP(=O)(O)OC[C@H]3O[C@@H](n4cnc5c(N)ncnc54)[C@H](OP(=O)(O)OC[C@H]4O[C@@H](n5cnc6c(N)ncnc65)[C@H](O)[C@@H]4O)[C@@H]3O)c2n1 and answer again. 2.7
